Below: a set of entries, each annotated with reported pEC50.
Biological target: hIP (Homo sapiens, UniProt P43119)
Sequence (P43119 whole entry): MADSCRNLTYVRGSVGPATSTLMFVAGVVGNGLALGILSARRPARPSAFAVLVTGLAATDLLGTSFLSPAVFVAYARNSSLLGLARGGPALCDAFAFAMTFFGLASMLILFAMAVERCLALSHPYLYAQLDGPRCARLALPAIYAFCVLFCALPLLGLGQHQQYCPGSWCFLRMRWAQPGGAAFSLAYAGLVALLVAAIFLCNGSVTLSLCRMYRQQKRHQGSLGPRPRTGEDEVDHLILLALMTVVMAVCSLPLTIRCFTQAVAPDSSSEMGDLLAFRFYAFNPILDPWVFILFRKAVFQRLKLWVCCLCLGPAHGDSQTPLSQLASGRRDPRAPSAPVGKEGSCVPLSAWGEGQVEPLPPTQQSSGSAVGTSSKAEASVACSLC
Assay: FLIPR calcium signal study, hIP
Details: HEK-293(EBNA) cells expressing recombinant human receptor, read-out: HIP functional data
pEC50: −log10 of the molar value.

Some compounds with known pEC50 results, for comparison:
>  <compound>
C=CC1CC(O)[C@H](C/C=C\CCCC(N)=O)[C@H]1/C=C/[C@@H](O)CCc1cc(Br)c(C)s1 (stereo partly drawn) [Compound 13H]

>  <measurement_target>
hIP (Homo sapiens, UniProt P43119)

>  <pEC50>
< 5.00

$$$$
>  <compound>
C=CC1CC(O)[C@H](C/C=C\CCCC(=O)NCCO)[C@H]1/C=C/[C@@H](O)CCc1cc(Br)c(C)s1 (stereo partly drawn) [Compound 12H]

>  <measurement_target>
hIP (Homo sapiens, UniProt P43119)

>  <pEC50>
< 5.00

$$$$

Consider the additional compound presented here.
The reported pEC50 of the compound C=CC1CC(O)[C@H](C/C=C\CCCC(=O)NCCO)[C@H]1/C=C/[C@@H](O)CCc1cc(Br)c(C)s1 (stereo partly drawn) [Compound 12L] was < 5.00

---

Target: hFP (Homo sapiens)
Sequence (P43088 whole entry): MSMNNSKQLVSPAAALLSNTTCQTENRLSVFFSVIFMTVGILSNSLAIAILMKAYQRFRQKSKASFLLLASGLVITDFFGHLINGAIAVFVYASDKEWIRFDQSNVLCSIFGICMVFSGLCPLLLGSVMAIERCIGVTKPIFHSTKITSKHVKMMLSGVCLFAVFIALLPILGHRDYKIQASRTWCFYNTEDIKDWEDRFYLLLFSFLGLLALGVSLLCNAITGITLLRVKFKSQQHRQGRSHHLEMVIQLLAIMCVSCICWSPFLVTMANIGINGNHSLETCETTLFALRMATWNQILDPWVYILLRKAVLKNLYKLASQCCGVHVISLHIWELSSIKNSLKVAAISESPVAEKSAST
Test: FLIPR calcium signal study, hFP
Details: HEK-293(EBNA) cells expressing recombinant human receptor, read-out: HFP functional data
Protocol: Methods for FLIPR™ Studies (a) Cell Culture […] Cells were excited with an Argon laser at 488 nm, and emission was measured through a 510-570 nm bandwidth emission filter (FLIPR™, Molecular Devices, Sunnyvale, Calif.). […] The peak increase in fluorescence intensity was recorded for each well. […] The peak fluorescence change in each drug-containing well was then expressed relative to the controls. […]
pEC50: −log10 of the molar value.
parameter: pEC50

>  <molecule>
Cc1sc(CC[C@H](O)/C=C/[C@H]2C(C)CC(O)[C@@H]2C/C=C\CCCC(N)=O)cc1Br (stereo partly shown) [Compound 17L]

>  <pEC50>
< 5.00

$$$$

Sure, the documented pEC50 for CCNC(=O)CCC/C=C\C[C@H]1C(O)CC[C@@H]1/C=C/[C@@H](O)CCc1cc(Br)c(C)s1 (stereo partly shown) [Compound 21H] is < 5.00

Record Cc1sc(CC[C@H](O)/C=C/[C@H]2CCC(O)[C@@H]2C/C=C\CCCC(=O)NCCO)cc1Br (stereo partly shown) [Compound 22H] . Reported pEC50: < 5.00

Kindly note the recorded pEC50 for Cc1sc(CC[C@H](O)/C=C/[C@H]2CCC(O)[C@@H]2C/C=C\CCCC(N)=O)cc1Br (stereo partly shown) [Compound 23H] , which is < 5.00
